Just for reference, ChEMBL document CHEMBL4011598 is where these values come from.

Assay: Total clearance in dog at 0.25 mg/kg, iv
Assay type: ADME, organism-based, Canis lupus familiaris
Settings: in vivo
Consider the following compounds and their measured log10(clearance) readings.
Form field - Quantity: clearance; Unit: mL/min/kg; Scale: log10

COc1cc(-c2cccc(F)c2)c(Cl)cc1-c1nn(C)c(=O)c2cc(S(=O)(=O)Nc3ccon3)ccc12    0.26
COc1cc(-c2cccc(F)c2)ccc1-c1nccc2cc(S(=O)(=O)Nc3ccncn3)ccc12    -0.09
COc1cc(-c2cccc(F)c2)c(Cl)cc1-c1nccc2cc(S(=O)(=O)Nc3ccon3)ccc12    -1.30
COc1cc(-c2cccc(F)c2)c(Cl)cc1-c1ncnc2cc(S(=O)(=O)Nc3ccon3)ccc12    0.30
COc1cc(-c2cccc(F)c2)c(Cl)cc1-c1ncc(O)c2cc(S(=O)(=O)Nc3ccon3)ccc12    0.34

q: Which value of log10(clearance) has been reported for COc1cc(-c2cccc(F)c2)c(Cl)cc1-c1[nH]c(=O)cc2cc(S(=O)(=O)Nc3ccon3)ccc12 in the records?
a: 1.14

q: Need log10(clearance) of COc1cc(-c2cccc(F)c2)c(Cl)cc1-c1nccc2cc(S(=O)(=O)Nc3ncon3)ccc12 , thanks.
a: 0.45

q: What value of log10(clearance) has been recorded for this entry: COc1cc(-c2cccc(C(F)(F)F)c2)c(F)cc1-c1nccc2cc(S(=O)(=O)Nc3ccon3)ccc12
a: -0.42

q: // query log10(clearance) value for entry COc1cc(C(F)(F)F)ccc1-c1ncnc2cc(S(=O)(=O)Nc3nccs3)ccc12
a: -0.66

q: # input compound: COc1cc(C(F)(F)F)ccc1-c1nccc2cc(S(=O)(=O)Nc3ccncn3)ccc12 ; wanted: its log10(clearance)
a: -0.04

* * *

Target: Sodium channel protein type 9 subunit alpha (Homo sapiens)
Sequence (Q15858 whole entry): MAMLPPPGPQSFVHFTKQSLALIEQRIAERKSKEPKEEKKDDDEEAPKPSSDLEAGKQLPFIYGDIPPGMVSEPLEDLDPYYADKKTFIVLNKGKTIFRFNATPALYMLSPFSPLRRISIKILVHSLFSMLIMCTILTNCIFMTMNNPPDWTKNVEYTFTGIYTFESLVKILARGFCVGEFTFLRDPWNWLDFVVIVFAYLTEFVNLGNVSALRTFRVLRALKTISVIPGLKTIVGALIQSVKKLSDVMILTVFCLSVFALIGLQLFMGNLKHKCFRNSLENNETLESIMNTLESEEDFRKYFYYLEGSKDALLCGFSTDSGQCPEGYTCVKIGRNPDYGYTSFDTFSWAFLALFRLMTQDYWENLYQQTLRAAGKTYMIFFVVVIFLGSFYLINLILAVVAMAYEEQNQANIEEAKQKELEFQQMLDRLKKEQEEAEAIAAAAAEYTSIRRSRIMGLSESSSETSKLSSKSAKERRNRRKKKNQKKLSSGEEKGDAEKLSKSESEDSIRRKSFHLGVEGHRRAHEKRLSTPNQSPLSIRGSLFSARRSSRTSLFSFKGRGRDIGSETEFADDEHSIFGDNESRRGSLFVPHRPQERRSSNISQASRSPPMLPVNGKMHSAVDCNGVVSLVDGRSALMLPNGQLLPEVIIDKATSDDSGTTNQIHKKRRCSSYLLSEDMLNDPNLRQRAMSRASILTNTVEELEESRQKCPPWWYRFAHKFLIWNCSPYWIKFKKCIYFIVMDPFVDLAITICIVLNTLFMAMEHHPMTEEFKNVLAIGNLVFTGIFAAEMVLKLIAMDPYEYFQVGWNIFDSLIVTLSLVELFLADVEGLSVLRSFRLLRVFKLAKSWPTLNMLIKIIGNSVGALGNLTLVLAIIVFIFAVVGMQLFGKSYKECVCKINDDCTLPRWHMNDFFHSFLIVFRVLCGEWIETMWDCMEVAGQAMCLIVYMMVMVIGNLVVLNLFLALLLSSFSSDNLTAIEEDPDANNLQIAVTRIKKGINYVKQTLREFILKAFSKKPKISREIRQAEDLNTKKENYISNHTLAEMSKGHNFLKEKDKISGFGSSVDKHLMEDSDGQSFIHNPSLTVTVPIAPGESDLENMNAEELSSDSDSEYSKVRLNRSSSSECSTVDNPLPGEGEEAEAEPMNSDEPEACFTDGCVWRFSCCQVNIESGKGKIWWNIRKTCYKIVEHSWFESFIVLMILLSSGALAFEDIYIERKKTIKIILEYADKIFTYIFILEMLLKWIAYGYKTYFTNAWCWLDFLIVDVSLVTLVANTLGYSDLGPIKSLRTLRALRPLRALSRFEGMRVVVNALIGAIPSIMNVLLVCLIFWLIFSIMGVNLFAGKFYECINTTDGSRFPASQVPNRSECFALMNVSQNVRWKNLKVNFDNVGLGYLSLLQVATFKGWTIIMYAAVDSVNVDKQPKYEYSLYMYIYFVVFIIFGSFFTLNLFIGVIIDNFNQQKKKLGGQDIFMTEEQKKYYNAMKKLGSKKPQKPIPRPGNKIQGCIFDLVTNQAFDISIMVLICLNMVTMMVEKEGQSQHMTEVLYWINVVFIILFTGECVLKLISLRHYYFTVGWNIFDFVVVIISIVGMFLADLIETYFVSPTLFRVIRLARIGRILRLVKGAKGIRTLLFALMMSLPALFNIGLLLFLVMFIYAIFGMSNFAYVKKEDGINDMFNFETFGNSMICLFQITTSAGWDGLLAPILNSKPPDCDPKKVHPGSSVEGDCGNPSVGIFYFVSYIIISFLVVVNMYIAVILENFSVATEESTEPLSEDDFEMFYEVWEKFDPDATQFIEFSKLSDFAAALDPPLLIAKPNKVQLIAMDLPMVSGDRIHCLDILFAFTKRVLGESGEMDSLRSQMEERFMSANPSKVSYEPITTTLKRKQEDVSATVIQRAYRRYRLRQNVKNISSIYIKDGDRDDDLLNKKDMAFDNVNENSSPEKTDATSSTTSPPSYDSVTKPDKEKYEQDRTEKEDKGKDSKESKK
Assay: Inhibition of human Nav1.7 at resting/closed state expressed in HEK293 cells at -140 mV holding potential by manual whole cell patch clamp electrophysiology assay
Type: cell-based
Parameter: IC50 (µM)
State just the number; it will be interpreted in µM.

q: Report IC50 for COc1cc(-c2cccc(C(F)(F)F)c2)c(F)cc1-c1nccc2cc(S(=O)(=O)Nc3ccon3)ccc12 please.
a: 4

* * *

Assay: Unbound fraction in rat plasma at 5 uM by LC-MS/MS method
Format: ADME, cell-free
Parameter: fraction unbound at 5 µM
Could you respond with only the numeric value?

q: Consider the compound shown here: COc1cc(-c2cccc(C(F)(F)F)c2)c(F)cc1-c1nccc2cc(S(=O)(=O)Nc3ccon3)ccc12 What is its recorded fraction unbound at 5 µM?
a: 0.0087

* * *

Experiment: Unbound fraction in dog plasma at 5 uM by LC-MS/MS method
Assay type: ADME, cell-free, Canis lupus familiaris
Parameter: fraction unbound at 5 µM
Give your answer as a number; write no unit.

q: What does the data say about its fraction unbound at 5 µM? Entry: COc1cc(-c2cccc(C(F)(F)F)c2)c(F)cc1-c1nccc2cc(S(=O)(=O)Nc3ccon3)ccc12
a: 0.0066

* * *

Attribute: clearance
Assay: Total clearance in rat at 0.5 mg/kg, iv
Type: ADME, organism-based
Conditions: in vivo
Give your result in mL/min/kg as a bare value.

q: Reported clearance for COc1cc(C(F)(F)F)ccc1-c1nccc2cc(S(=O)(=O)Nc3ccncn3)ccc12 : what is it?
a: 4.33

q: Need clearance, item COc1cc(-c2cccc(C(F)(F)F)c2)c(F)cc1-c1nccc2cc(S(=O)(=O)Nc3ccon3)ccc12
a: 3.83

q: Look up clearance for this molecule: COc1cc(-c2cccc(F)c2)c(Cl)cc1-c1nccc2cc(S(=O)(=O)Nc3ccon3)ccc12
a: 0.783

q: Given COc1cc(-c2cccc(F)c2)c(Cl)cc1-c1nn(C)c(=O)c2cc(S(=O)(=O)Nc3ccon3)ccc12 , state its recorded clearance.
a: 35

q: Give its clearance value. Item: COc1cc(-c2cccc(F)c2)c(Cl)cc1-c1[nH]c(=O)cc2cc(S(=O)(=O)Nc3ccon3)ccc12
a: 35

q: Dear colleague, I am looking for the recorded clearance of the following molecule: COc1cc(-c2cccc(F)c2)ccc1-c1nccc2cc(S(=O)(=O)Nc3ccncn3)ccc12
a: 28.3

q: Sample COc1cc(-c2cccc(F)c2)c(Cl)cc1-c1nccc2cc(S(=O)(=O)Nc3ncon3)ccc12 — what was its clearance?
a: 26.7
